Biological target: Human TRPV3 (Homo sapiens)
Construct: expressed in transfected cells; host or cells: CHO cells (selected with G-418)
Sequence (Q8NET8 1-790): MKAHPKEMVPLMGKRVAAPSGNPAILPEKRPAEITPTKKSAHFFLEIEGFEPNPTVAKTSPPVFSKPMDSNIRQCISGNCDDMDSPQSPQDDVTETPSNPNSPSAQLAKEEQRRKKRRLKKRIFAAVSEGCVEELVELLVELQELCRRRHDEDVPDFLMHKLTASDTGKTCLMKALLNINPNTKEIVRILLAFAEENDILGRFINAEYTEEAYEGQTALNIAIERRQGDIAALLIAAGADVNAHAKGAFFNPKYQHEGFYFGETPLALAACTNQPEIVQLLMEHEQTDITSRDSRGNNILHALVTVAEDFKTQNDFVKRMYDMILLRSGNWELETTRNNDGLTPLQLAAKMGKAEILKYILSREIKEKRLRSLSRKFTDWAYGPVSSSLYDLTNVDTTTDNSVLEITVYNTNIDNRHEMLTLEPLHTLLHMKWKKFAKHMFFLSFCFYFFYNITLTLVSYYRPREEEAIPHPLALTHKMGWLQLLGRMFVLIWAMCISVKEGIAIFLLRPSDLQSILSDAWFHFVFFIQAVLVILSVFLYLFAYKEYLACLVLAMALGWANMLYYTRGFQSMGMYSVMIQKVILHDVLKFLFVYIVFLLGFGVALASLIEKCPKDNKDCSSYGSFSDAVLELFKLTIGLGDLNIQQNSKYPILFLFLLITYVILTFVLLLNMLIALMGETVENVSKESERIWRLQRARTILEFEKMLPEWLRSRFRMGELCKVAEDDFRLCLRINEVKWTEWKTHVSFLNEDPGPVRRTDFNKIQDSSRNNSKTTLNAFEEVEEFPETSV
Experiment: 45Calcium uptake assay: inhibition of 2-APB induced cellular uptake of radioactive calcium
Type: cell-based
Details: 10 μM test compound; human TRPV3 expressing CHO cells; 2-APB 500 μM; read-out: Percentage Inhibition (10 μM)
Parameter: inhibition at 10 µM. Scope: all listed entries.
Answer in %, number only, no unit symbol.

{"columns": ["compound", "endpoint", "scale-unit", "data-value"],
 "data": [
  ["COc1cccc(/C=C/c2nc3ccccc3n2-c2ncc(Cl)cc2Cl)c1OCc1ccccc1 [Example 5]", "inhibition at 10 µM", "%", 69.3]
]}

# evaluate next
Reported inhibition at 10 µM of CCOc1c(/C=C/c2nc3cc(F)c(F)cc3n2-c2ccc(C#N)cn2)cccc1OC [Example 63] : 97.7
